We begin with a simple list: items and their reported AIRE transcriptional activation functional score.
B1: library; numbered along this chain (parent)
chain: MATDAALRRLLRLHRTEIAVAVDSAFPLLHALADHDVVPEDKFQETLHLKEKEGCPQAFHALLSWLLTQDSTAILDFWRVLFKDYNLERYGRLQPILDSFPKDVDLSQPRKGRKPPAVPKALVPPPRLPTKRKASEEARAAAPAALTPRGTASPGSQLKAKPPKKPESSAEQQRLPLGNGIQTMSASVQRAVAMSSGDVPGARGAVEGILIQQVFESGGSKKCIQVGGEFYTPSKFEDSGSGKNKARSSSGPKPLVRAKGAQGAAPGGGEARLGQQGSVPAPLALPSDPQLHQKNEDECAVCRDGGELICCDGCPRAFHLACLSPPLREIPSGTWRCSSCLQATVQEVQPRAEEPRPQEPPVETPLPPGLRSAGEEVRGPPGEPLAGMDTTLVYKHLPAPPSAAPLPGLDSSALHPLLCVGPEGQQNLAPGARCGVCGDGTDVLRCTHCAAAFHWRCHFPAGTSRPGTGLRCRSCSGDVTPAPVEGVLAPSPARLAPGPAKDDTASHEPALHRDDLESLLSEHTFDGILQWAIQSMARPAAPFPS

variants of: B1; assay: AIRE transcriptional activation functional score (insulin promoter-GFP; nonsense median 0, synonymous median 1) (normalised score); higher = higher AIRE activity (more reporter activation); details: with insulin promoter-GFP reporter in HEK293
I'd appreciate a reply containing only the number, no unit.

Variant code	Number
E329G	0.92
V199N	0.886
G486R	0.926

Note: attention shifts to another entry.
AIRE transcriptional activation functional score measured on `D238M` = 0.876
